test target: GSTPH(GRP) (Mus musculus, UniProt O08967)
Sequence (O08967 239-399): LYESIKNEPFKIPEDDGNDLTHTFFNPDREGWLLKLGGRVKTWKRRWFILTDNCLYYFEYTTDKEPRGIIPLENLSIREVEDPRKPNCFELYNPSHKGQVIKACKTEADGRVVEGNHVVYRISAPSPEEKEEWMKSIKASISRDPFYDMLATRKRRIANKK
pIC50: −log10 of the molar value.
property measured: pIC50

{"compound": "O=P(O)(O)O[C@H]1[C@H](O)[C@@H](OP(=O)(O)O)[C@H](OP(=O)(O)O)[C@@H](OP(=O)(O)O)[C@H]1O [Ins(1,3,4,5)P4, inositol 1,3,4,5-P4]", "experimental value": "5.22 to 5.52"}

====

test target: GSTPH(GRP) (Mus musculus)
Construct: residues 239 to 399 (PH domain); made in house; host or cells: bacteria
procedure summary: Competition of [32P]PI(3,4,5)P3 binding to GST-PH by inositol phosphate head groups
Design: species or system murine
conditions used: statement in the description
property measured: binding of inositol phosphate to GRP polypeptides

{"compound": "O=P(O)(O)O[C@H]1[C@H](OP(=O)(O)O)[C@@H](OP(=O)(O)O)[C@H](O)[C@@H](O)[C@H]1OP(=O)(O)O (relative stereo)", "experimental value": "not"}
{"compound": "O=P(O)(O)O[C@H]1[C@H](O)[C@@H](OP(=O)(O)O)[C@H](OP(=O)(O)O)[C@@H](OP(=O)(O)O)[C@H]1O", "experimental value": "bind"}
{"compound": "O=P(O)(O)O[C@@H]1[C@@H](O)[C@H](OP(=O)(O)O)[C@@H](OP(=O)(O)O)[C@@H](O)[C@H]1OP(=O)(O)O", "experimental value": "not"}
{"compound": "O=P(O)(O)O[C@@H]1[C@H](O)[C@H](O)[C@@H](OP(=O)(O)O)[C@H](OP(=O)(O)O)[C@H]1O [Ins(1,4,5)P3, D-myo-inositol 1,4,5 trisphosphate]", "experimental value": "not"}
